Hi there, I'd appreciate the recorded displacement for every entry that follows.
- Target System: Bcl-2-like protein 10 (Homo sapiens)
- Protocol Summary: TR3 peptide-Bcl-B binding displacers, biochemical primary FP assay, phenotype converters (AID 1240);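 also: 0% = Bcl-B with tracer peptide and DMSO and 100% = tracer peptide lacking Bcl-B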
- Condition Set: GST-Bcl-B / FITC-TR3 peptide fluorescence polarization; stronger effect = higher value; compound at 3.75 mg/L
Among all 50,000 compounds or so, about 800 (1.6%) showed an effect of 50% or more. The sample holds strong results, similar compounds and a random draw of the others, so the mix is not that of the screen.
Answers are plain numbers, in %.

INSERT INTO assay_data (compound, readout_label, value) VALUES
  ('C=C(NC(C)=O)C(=O)c1ccc([N+](=O)[O-])cc1', 'displacement', 18.9),
  ('Cc1ccc([N+](=O)[O-])cc1S(=O)(=O)N1CCOCC1', 'displacement', 5.1),
  ('CCOC(=O)CONC(=NCc1ccccc1)c1nonc1N', 'displacement', 3.6),
  ('O=C(Nc1ccc2c(c1)OCCO2)c1ccc(Br)cc1', 'displacement', -0.2),
  ('CCCC1=NN(c2ccc([N+](=O)[O-])cc2)C(=O)/C1=C\N(C)C', 'displacement', -5.5);

Give me displacement for each of these compounds, listed below.
1. COc1ccc(Cc2nnc(NC(=O)Nc3ccccc3)s2)cc1
2. COC(=O)C(C)Oc1cc2oc(=O)cc(-c3ccccc3)c2cc1Cl (stereo unspecified)
3. CCOC(=O)c1cc(CC)sc1NC(=O)c1cc([N+](=O)[O-])ccc1N1CCN(CC)CC1
4. N#C/C(=C/c1ccccc1)C(=O)Nc1ccc(Cl)c(Cl)c1
5. Cc1onc(-c2ccccc2Cl)c1C(=O)Nc1sc(C)c(C)c1C(=O)OC(C)C
6. O=C(/C=C/c1cccc([N+](=O)[O-])c1)Nc1ccc(-c2nc3ncccc3o2)cc1

1: 11.9; 2: 10.3; 3: -2.3; 4: 1.5; 5: -6.3; 6: 45.3

====

Hi there, I'd appreciate the recorded displacement for every entry that follows.
- Target System: Bcl-2-like protein 10 (Homo sapiens)
- Protocol Summary: TR3 peptide-Bcl-B binding displacers, biochemical primary FP assay, phenotype converters (AID 1240);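 also: 0% = Bcl-B with tracer peptide and DMSO and 100% = tracer peptide lacking Bcl-B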
- Condition Set: GST-Bcl-B / FITC-TR3 peptide fluorescence polarization; stronger effect = higher value; compound at 3.75 mg/L
The campaign covered roughly 50,000 compounds. About 800 (1.6%) showed an effect of 50% or more. The list comes from a sample in which strong results are over-represented; it also holds close analogues and randomly drawn compounds.
The reply should consist of the numeric value with the unit placed after it.

Example entries begin here.
INSERT INTO assay_data (molecule, target_system, value) VALUES
  ('CC(=NCCN1CCNCC1)C1=C(O)CC(C)(C)CC1=O', 'Bcl-2-like protein 10 (Homo sapiens)', '-4.3%'),
  ('Clc1ccc(CN2CCN(/N=C\c3ccc(OCc4ccccc4)cc3)CC2)cc1', 'Bcl-2-like protein 10 (Homo sapiens)', '-9.5%'),
  ('COC(=O)COc1ccc(/C=C2\C(=O)NC(=O)N(C)C2=O)cc1OC', 'Bcl-2-like protein 10 (Homo sapiens)', '-18.2%'),
  ('Cc1cccc(-n2c(CCN3C(=O)c4ccccc4C3=O)nc3ccccc3c2=O)n1', 'Bcl-2-like protein 10 (Homo sapiens)', '-0.9%'),
  ('O=C(O)CCCCCN1C(=O)C(O)=C(C(=O)/C=C/c2ccccc2)C1c1ccccc1 (stereo not given)', 'Bcl-2-like protein 10 (Homo sapiens)', '4.7%');

Give me displacement for each of these molecules, listed below.
1. CCOC(=O)C1=C(C)N=c2s/c(=C\c3ccccc3OC)c(=O)n2C1c1ccc(C)cc1 (stereo not given)
2. CCOC(=O)C1=C(C)N=C2SCCN2C1c1ccccc1 (stereo not given)

-2.8%
-10.4%

Values from PubChem BioAssay AID1240
